Target: OTOP2; further: reference of the scale not given here
Assay: pooled miR-30 sensor sort-seq; sequence = guide strand
Conditions: shRNA
Items are presented alongside their recorded sensor-assay potency score (higher = more potent).
Response field accepts a number only; no unit should be typed.

{"sequence": "TTGGTGGTGAGTGTGAACATGA", "obs_value": -0.459}
{"sequence": "TTCCACATGACATACAGCATGG", "obs_value": -1.01}
{"sequence": "TAGAAATCCACCTCCACTGTGT", "obs_value": 0.657}

[ask] I would be grateful if you could share the reported sensor-assay potency score (higher = more potent) for ATCCACAGAATGACATTGCAGA .
[reply] -0.488

[ask] I have this sequence here, TAGATGACCAGGGCCTGCCTGG , and I need its recorded sensor-assay potency score (higher = more potent).
[reply] -1.42

[ask] Look up sensor-assay potency score (higher = more potent): TTGAACCTCGTAGATGATGAAG
[reply] -1.6

[ask] What measured sensor-assay potency score (higher = more potent) goes with TCCACCTCCACTGTGTTGCTGA ?
[reply] -0.748

[ask] What does the data say about its sensor-assay potency score (higher = more potent)? Entry: TAGAAGAGGATCCAGAGCGTTG
[reply] -1.26

[ask] // lookup sensor-assay potency score (higher = more potent) for TTGCCAGCAGCATCATCGCAGT
[reply] -1.22
